target: DNA topoisomerase 2-alpha (Homo sapiens, UniProt P11388); assay: Inhibition of recombinant human topoisomerase-2alpha expressed in Saccharomyces cerevisiae JEL1 harboring topoisomerase1 deletion mutant assessed as reduction in enzyme-mediated [gamma32P]ATP hydrolysis using relaxed pBR322 DNA as substrate after 8 mins
Sequence (P11388 whole entry, looked up, stated change not applied): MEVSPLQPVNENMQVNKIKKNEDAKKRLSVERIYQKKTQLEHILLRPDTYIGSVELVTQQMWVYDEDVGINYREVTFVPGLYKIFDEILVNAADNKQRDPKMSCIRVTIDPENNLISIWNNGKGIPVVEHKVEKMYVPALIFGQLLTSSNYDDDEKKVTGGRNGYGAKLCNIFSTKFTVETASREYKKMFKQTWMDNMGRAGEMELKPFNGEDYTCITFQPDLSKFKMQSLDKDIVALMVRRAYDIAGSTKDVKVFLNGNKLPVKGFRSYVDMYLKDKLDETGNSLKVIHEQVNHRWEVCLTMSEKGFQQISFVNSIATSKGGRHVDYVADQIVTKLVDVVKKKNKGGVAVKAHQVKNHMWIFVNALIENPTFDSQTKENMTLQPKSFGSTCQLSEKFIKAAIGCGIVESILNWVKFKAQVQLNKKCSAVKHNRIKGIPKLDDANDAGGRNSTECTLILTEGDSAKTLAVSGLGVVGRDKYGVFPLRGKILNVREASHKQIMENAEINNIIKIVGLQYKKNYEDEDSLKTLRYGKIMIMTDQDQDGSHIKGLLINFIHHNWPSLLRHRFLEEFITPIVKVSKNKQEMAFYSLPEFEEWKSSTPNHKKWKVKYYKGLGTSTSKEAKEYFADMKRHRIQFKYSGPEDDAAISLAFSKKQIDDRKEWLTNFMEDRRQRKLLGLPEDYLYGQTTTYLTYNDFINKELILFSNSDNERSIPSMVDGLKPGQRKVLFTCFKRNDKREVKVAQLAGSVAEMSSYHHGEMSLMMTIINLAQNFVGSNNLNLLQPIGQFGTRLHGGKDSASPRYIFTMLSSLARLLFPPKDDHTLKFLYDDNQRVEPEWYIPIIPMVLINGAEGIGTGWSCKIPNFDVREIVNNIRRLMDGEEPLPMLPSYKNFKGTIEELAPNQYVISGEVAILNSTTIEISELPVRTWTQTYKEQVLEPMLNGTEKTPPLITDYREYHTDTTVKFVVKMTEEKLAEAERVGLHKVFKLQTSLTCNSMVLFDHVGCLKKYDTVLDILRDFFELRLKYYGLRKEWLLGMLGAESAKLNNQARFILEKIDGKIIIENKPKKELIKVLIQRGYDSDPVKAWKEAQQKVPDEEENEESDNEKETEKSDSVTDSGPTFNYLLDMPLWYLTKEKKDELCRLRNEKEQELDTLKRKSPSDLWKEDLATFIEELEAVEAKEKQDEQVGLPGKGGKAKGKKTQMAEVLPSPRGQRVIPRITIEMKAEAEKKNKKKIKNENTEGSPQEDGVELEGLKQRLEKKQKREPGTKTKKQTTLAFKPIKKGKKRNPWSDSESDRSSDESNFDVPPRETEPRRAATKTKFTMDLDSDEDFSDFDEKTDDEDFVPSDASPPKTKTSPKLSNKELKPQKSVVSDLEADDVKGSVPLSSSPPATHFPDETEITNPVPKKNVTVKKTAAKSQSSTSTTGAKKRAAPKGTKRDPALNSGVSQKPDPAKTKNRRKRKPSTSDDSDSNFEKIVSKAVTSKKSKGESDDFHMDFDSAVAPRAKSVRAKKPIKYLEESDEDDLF
pIC50: −log10 of the molar value.

| Compound | Assay Target | pIC50 |
| --- | --- | --- |
| NCCCCNCCCNCC(O)COc1cc(O)c2c(=O)c3ccccc3oc2c1 (stereo unspecified) | DNA topoisomerase 2-alpha (Homo sapiens, UniProt P11388) | 5.00 |

---

biological target: DNA topoisomerase 2-alpha (Homo sapiens, UniProt P11388); experiment: Inhibition of 150 nM recombinant human topoisomerase-2alpha catalytic activity expressed in Saccharomyces cerevisiae JEL1 harboring topoisomerase1 deletion mutant assessed as reduction in supercoiled pBR322 DNA relaxation at 10 uM after 4 mins by ethidium bromide staining based agarose gel electrophoresis
Sequence (P11388 whole entry): as the sequence (P11388 whole entry, looked up, stated change not applied) above
Calls of active or inactive are those of the source. No cut-off for these calls is given here.

| Molecule | Assay Target | inhibition |
| --- | --- | --- |
| NCCCCNCCCNCC(O)COc1cc(O)c2c(=O)c3ccccc3oc2c1 (centres undefined) | DNA topoisomerase 2-alpha (Homo sapiens, UniProt P11388) | Active |
| NCCCNCC(O)COc1cc(O)c2c(=O)c3ccccc3oc2c1 (centres undefined) | DNA topoisomerase 2-alpha (Homo sapiens, UniProt P11388) | Active |
| Cl.Cl.Cl.Cl.NCCCNCCCCNCCCNCC(O)COc1cc(O)c2c(=O)c3ccccc3oc2c1 (centres undefined) | DNA topoisomerase 2-alpha (Homo sapiens, UniProt P11388) | Active |
